Each recorded value in this set is attributed to ChEMBL document CHEMBL2150993.

# growth inhibition (GI) listing for each entry below
# Protocol Description: Growth inhibition of human NCI-322M cells after 48 hrs by cell counting analysis
# Type: functional
# Experimental Parameters: at 10 µM

See these solved cases before continuing.
>  <Compound>
CN1CCN(CCC(=O)Nc2nc(-c3ccc(Cl)cc3)cs2)CC1

>  <growth inhibition (GI)>
<10%

$$$$
>  <Compound>
O=C(CN1CCN(c2ccccc2)CC1)Nc1nc(-c2ccc(Cl)cc2)cs1

>  <growth inhibition (GI)>
<10%

$$$$

Would you kindly look at the next entry?
// Cc1ccc(-c2csc(NC(=O)CN3CCN(C)CC3)n2)cc1 : growth inhibition (GI) value = <10%
